# Target Entity: UniProt P07711
# Experiment: Cathepsin enzyme inhibition assay (fluorogenic peptide substrate Z-Val-Val-Arg-AMC), Cathepsin L
# Assay type: biochemical, human and mouse
# Test Context: enzyme 1 nM, substrate 20 μM, pH 6.5; read-out: CatL IC50
pIC50: −log10 of the molar value.
Measured pIC50 values are reported for all entries that follow.
Readout Type: pIC50

• COC(=O)c1ccc(C(=O)N2C[C@H](S(=O)(=O)c3ccccc3C(F)(F)F)C[C@H]2C(=O)NCC#N)cc1 = ≤ 4.60
• N#CCNC(=O)[C@@H]1C[C@@H](S(=O)(=O)c2ccccc2)CN1C(c1ccccc1)C(F)(F)F (stereo partly shown) = ≤ 4.60
• Cc1cc(N2C[C@H](S(C)(=O)=O)C[C@H]2C(=O)NC2(C#N)CC2)n(Cc2ccccc2)n1 = ≤ 4.60
• CC(C)C[C@]1(C(=O)NC2(C#N)CC2)C[C@H](S(C)(=O)=O)[C@@H](c2ccc(F)cc2)N1 = ≤ 4.60
